Test system: 282377-053-R-J1-PDC complex spheroids, viability;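 note: spheroids exposed to compounds for 7 days before readout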
Experiment: Anticancer human tumor 282377-053-R-J1-PDC patient-derived colon adenocarcinoma cell line growth inhibition [GQUAD]; active = viability on the fitted dose curve at most 10% of control; inactive = the rest
Conditions: second compound 3.16 µM; first compound 0.316 µM
The categories you may choose from are active, inactive

Task: What did this assay record as the result for O=C(NO)c1cnc(N2CCN(S(=O)(=O)c3ccc4ccccc4c3)CC2)nc1 + Cc1cnc(CNC(=O)c2c(=O)c3ccc(N4CCCN(C)CC4)nc3n3c2sc2ccccc23)cn1 ?
Output: inactive

Task: Tell me the recorded outcome of this test for C#Cc1c(F)ccc2cc(O)cc(-c3ncc4c(N5CC6CCC(C5)N6)nc(OCC56CCCN5CC(F)C6)nc4c3F)c12 (stereo not given) + CN(C)c1ccc(Nc2c3ccc(NC(=O)CCN4CCCC4)cc3nc3cc(NC(=O)CCN4CCCC4)ccc23)cc1 .
Output: inactive

Task: Tell me the assay call for Cc1[nH]c2ccccc2c1CCNCc1ccc(/C=C/C(=O)NO)cc1 + CN(C)c1ccc(Nc2c3ccc(NC(=O)CCN4CCCC4)cc3nc3cc(NC(=O)CCN4CCCC4)ccc23)cc1 please.
Output: active

Task: Please state the recorded outcome for this compound: O=c1[nH]cc(F)c(=O)[nH]1 + CN(C)c1ccc(Nc2c3ccc(NC(=O)CCN4CCCC4)cc3nc3cc(NC(=O)CCN4CCCC4)ccc23)cc1
Output: inactive

Task: Please let me know the test result on file for Cc1cccc(N(C)C(=O)C2C(O)CCN2c2nc(C)cc(C(F)(F)F)c2C#N)c1 (stereo not given) + Cc1cnc(CNC(=O)c2c(=O)c3ccc(N4CCCN(C)CC4)nc3n3c2sc2ccccc23)cn1 .
Output: inactive
